- System Name: Adenosine kinase (Homo sapiens)
- Test Details: Inhibition of adenosine kinase activity in IMR-32 human neuroblastoma cells
- Format: cell-based
Value Kind: IC50 (nM)
Write it as a number; the unit nM goes unstated.

Here's what some known entries look like.
COc1ccc(-c2c(-c3ccc(N(C)C)cc3)nc3ncnc(N)c3c2-c2cccc(Br)c2)cc1OC ... 350
CN(C)c1ccc(-c2nc3ncnc(N)c3c(-c3ccccc3)c2-c2ccccc2)cn1 ... 53
Nc1ncnc2nc(-c3ccc(N4CCOCC4)nc3)c(Cc3ccccc3)c(-c3cccc(Br)c3)c12 ... 450
CN(C)c1ccc(-c2nc3ncnc(N)c3c(-c3ccccc3)c2-c2ccccc2)cc1 ... 250
Clc1ccc(-c2cnc3c(N4CCOCC4)ncnc3n2)cc1 ... 22000
COCCN(C)c1ccc(-c2nc3ncnc(N)c3c(-c3cc(Br)cs3)c2-c2ccc(OC)c(OC)c2)cc1 ... 367

`CN(C)c1ccc(-c2c(-c3ccc(N4CCOCC4)nc3)nc3ncnc(N)c3c2-c2cccc(Cl)c2)cc1` on Adenosine kinase (Homo sapiens) gives IC50 = 130

----------
- System Name: Adenosine kinase (Homo sapiens)
- Test Details: Inhibition of adenosine kinase activity in IMR-32 human neuroblastoma cells
Value Kind: IC50 (nM)
Write it as a number; the unit nM goes unstated.

Item: `Nc1ncnc2nc(-c3cccs3)c(-c3ccccc3)c(-c3ccccc3)c12` | IC50: 49

Item: `Nc1ncnc2nc(-c3ccc(N4CCOCC4)nc3)c(-c3ccc(F)cc3)c(-c3cccc(Br)c3)c12` | IC50: 197

Item: `CN(C)c1ccc(-c2nc3ncnc(N)c3c(-c3cccc(Cl)c3)c2-c2ccccc2)cn1` | IC50: 130

Item: `Cc1ccc(-c2c(-c3cccs3)nc3ncnc(N)c3c2-c2ccc(C)c(F)c2)cc1F` | IC50: 288

----------
# log10(IC50) values compiled below
- System Name: Adenosine kinase (Homo sapiens, UniProt P55263)
- Sequence (P55263 whole entry): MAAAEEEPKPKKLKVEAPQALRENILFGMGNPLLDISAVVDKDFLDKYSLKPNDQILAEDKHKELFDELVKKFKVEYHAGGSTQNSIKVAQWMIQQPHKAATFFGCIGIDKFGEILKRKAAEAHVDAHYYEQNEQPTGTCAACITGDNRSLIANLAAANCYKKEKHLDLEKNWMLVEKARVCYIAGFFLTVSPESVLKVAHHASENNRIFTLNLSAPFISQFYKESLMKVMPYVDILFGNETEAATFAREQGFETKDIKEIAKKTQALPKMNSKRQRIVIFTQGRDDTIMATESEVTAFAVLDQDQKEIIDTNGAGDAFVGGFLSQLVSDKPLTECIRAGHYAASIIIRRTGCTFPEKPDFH
- Test Details: Inhibition of adenosine kinase activity in IMR-32 human neuroblastoma cells
All values: log10 IC50 [nM].

COc1ccc(-c2c(-c3cccs3)nc3ncnc(N)c3c2-c2cc(Br)cs2)cc1OC ... 1.40
CN(C)c1ccc(-c2nc3ncnc(N)c3cc2-c2ccccc2)cc1 ... 3.18
CCCCCc1c(-c2ccc(N(C)C)nc2)nc2ncnc(N)c2c1-c1cccc(Br)c1 ... 2.80
COC(=O)Cc1c(-c2cccs2)nc2ncnc(N)c2c1-c1cccc(Br)c1 ... 2.21
CN(C)c1ccc(-c2nc3ncnc(N)c3c(-c3cc(Br)cs3)c2C2CC2)cn1 ... 2.80

Next item in the queue.
`Nc1ncnc2nc(-c3ccc(N4CCOCC4)nc3)c(-c3ccccc3)c(-c3cccc(Br)c3)c12` on Adenosine kinase (Homo sapiens, UniProt P55263) gives log10(IC50) = 2.19
